target: T1, Full-length human HER3 extracellular domain (ECD) (human, UniProt P21860 20-643); assay: BIACORE 3000 SPR, mAb captured by anti-human Fc, ECD as analyte, 25 C
T1 construct: also called human HER3 ECD; HER-3 ECD full length
T1 sequence (P21860 20-643): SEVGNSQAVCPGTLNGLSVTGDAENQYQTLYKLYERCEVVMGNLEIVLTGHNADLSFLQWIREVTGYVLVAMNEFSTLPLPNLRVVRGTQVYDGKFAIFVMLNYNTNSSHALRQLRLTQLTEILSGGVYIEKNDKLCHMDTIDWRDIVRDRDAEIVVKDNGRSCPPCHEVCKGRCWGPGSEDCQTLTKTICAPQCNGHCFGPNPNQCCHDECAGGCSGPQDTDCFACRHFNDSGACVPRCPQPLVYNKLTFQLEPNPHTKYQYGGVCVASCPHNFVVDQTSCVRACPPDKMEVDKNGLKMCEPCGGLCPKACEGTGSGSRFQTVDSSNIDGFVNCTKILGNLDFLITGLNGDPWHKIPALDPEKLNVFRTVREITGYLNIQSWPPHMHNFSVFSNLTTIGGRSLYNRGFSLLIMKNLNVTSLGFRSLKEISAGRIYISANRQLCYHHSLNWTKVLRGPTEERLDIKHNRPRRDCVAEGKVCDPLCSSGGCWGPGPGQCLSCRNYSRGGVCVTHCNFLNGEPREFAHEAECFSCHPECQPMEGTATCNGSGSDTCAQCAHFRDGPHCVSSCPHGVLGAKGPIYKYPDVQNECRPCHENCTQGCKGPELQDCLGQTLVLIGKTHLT
The following binders are listed with their measured pKd values.
Here pKd is given on a logarithmic scale as minus log10 of the concentration in mol/L.

Example binders with recorded pKd:
binder	reportedMetric	observedMeasurement
1D9 H6L5 RR antibody (antibody, V domains shown, also called 1D9 116L5 RR antibody) VH: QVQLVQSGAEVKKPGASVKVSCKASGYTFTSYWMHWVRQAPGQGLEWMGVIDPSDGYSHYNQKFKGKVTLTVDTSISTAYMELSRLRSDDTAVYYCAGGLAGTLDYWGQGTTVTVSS VL: DVLMTQSPSSLSASVGDRVTITCRSSQSIVHSSGNTYLQWFQQKPGKAPKLLISKVSNRFSGVPSRFSGSGSGTDFTLTISSLQPEDFAVYYCFQGSHVPWTFGQGTKLEIKR	pKd	8.16
1D9 H6L4 RR antibody (antibody, V domains shown) VH: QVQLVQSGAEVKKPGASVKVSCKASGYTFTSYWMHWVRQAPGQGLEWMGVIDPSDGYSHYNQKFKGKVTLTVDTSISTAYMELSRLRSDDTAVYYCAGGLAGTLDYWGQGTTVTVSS VL: DILMTQSPSSLSASVGDRVTITCRSSQSIVHSSGNTYLQWYQQKPGKAPKLLIYKVSNRFSGVPSRFSGSGSGTDFTLTISSLQPEDFAVYYCFQGSHVPWTFGQGTKLEIKR	pKd	8.10

Alright, here's another binder for you.
Name the recorded pKd for 15D5 H3L3 antibody (antibody, V domains shown, also called 15D5 H31.3 antibody) VH: QVQLVQSGAEVKKPGASVKVSCKASGYTFTDYNMNWVRQAPGQGLEWMGGINPNYGTTVYNQKFKGKATLTVDQSISTAYMELSRLRSDDTAVYYCARMTTIVPFDYWGQGTTVTVSS VL: DIQMTQSPSSLSASVGDRVTITCRASQDISNYLNWYQQKPGKAPKLLIYYTSTLHSGVPSRFSGSGSGTDFTLTISSLQPEDFATYYCQQGYTLPWTFGQGTKLEIKR .
8.06
